# Tested on: NCI-H1299
# TEST_DESCRIPTION: Viability of H1299 (p53 null) cells at 4 mM by MTT assay
# Type: functional
# TEST_CONTEXT: Homo sapiens
Calls of active or inactive are those of the source. The calls are words filed in the database; no cut-off is given here.

{"MOLECULE": "OCC1(CO)C(O)C2CCN1CC2 (centres undefined)", "Activity": "inactive"}
{"MOLECULE": "CC(=O)OCC1(COC(C)=O)C(=O)C2CCN1CC2", "Activity": "Active"}
{"MOLECULE": "O=C1C2CCN(CC2)C1(CO)CO", "Activity": "Active"}
{"MOLECULE": "O=C1CN2CCC1CC2", "Activity": "inactive"}
